Molecular target: T1, APBA1_2, Q02410
T1 sequence (Q02410 742-832, limits assumed, looked up): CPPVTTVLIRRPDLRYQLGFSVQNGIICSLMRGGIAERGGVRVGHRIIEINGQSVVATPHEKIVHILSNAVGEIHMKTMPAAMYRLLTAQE
Test: holdup assay
Parameters: key: below the threshold = too weak to quantify, mostly under pKd 3.1 to 4
Conditions: plain residues with an end cap or a label only (N-terminal biotin on a linker: ado-ado)
Here the recorded pKd is given for each entry.
Answer as a number with no unit attached.

Some binders with recorded pKd:
PLSPEQPTKL [TRIM50, Q86XT4] | 4.06
CLREWCDAFL [BANF1, O75531] | 3.75
EALLQMESVA [CAVIN3, Q969G5] | 3.5
FNSYSLTGYV [CLDN2, P57739] | 4
HSGYRLNDYV [CLDN14, O95500] | 3.84

Shift focus to the following entry.
Look at this binder and give its reported pKd. QPCFNKLFPL [LPXN, O60711]
3.63
